Values from paper PMC11555231

Recorded pKd for the following binders
- targetOrSystem: N-terminally biotinylated recombinant human PADI4 (bio-His-PADI4) (human, UniProt Q9UM07 1-663, biotin on the N-terminal Avi-Tag (BirA))
- Sequence (Q9UM07 whole entry): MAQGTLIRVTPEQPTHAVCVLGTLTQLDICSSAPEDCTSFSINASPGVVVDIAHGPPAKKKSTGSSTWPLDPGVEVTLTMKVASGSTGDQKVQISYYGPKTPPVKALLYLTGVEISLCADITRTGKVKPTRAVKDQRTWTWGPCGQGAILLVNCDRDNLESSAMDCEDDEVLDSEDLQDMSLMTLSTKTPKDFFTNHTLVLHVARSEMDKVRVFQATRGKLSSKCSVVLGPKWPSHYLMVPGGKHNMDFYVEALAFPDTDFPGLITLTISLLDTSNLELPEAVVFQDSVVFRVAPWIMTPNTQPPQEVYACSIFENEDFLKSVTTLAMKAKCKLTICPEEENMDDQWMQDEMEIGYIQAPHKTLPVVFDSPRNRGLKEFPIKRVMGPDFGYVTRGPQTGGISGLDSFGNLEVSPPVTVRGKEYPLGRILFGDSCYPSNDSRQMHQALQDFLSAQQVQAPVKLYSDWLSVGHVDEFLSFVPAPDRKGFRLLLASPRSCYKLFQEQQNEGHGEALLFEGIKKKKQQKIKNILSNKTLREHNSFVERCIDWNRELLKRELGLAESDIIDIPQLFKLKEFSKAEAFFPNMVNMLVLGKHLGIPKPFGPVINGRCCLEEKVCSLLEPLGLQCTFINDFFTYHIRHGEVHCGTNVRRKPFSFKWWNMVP
- experimentalProtocol: SPR
pKd: −log10 of the molar value.

{"columns": ["binder", "cmp", "pKd"],
 "data": [
  ["YASCRYRQVLQL (as PADI4_11: thioether cyclisation between the N-terminus and the side chain of C4; C-terminal amide) [PADI4_11 analogue with E2 replaced by alanine]", "=", 3.94],
  ["YDSCRYRQVLQL (as PADI4_11: thioether cyclisation between the N-terminus and the side chain of C4; C-terminal amide) [PADI4_11 analogue with E2 replaced by aspartic acid]", "=", 4.39],
  ["YESCRY [11B]", "<", 5.70],
  ["YESCRARQVLQL [PADI4_11 Y6A]", "=", 4.89],
  ["YESCRYRQVLQA [PADI4_11 L12A]", "=", 5.29],
  ["YEACRYRQVLQL [PADI4_11 S3A]", "=", 6.80],
  ["YESCRYAQVLQL (as PADI4_11: thioether cyclisation between the N-terminus and the side chain of C4; C-terminal amide) [PADI4_11 analogue with R7 replaced by alanine]", "=", 5.40]
]}
